Cited source: ChEMBL document CHEMBL1201862

test system: SR; experiment: NCI tumour cell line growth inhibition, 48 h
The source made the active and inactive calls. Cut-off read from the data, not from the text of the source: active = GI50 up to about 1.1 µM and inactive = higher.
Field 'call' accepts yes (1) (active), no (0) (inactive)

// known answers, use as guide
{"smiles-text": "N#Cc1c(O)nc2[nH]nc(/N=N\\c3c(O)ccc4ccccc34)c2c1-c1ccc(Cl)cc1", "class": "yes (1)"}
{"smiles-text": "O=[N+]([O-])c1ccc(CSc2nncc3[nH]cnc23)cc1", "class": "no (0)"}
{"smiles-text": "CC[C@H]1C=CCC[C@@]2(C[C@@H]3CC[C@H]4[C@@H](C(=O)OCCCCCCCCCCCCCCCC(=O)N(CCCNC(C)=O)C[C@H](CCNC(C)=O)OC(C)=O)[C@@]5(CCC[C@@H](C)O5)NC(=[N+]34)N2)O1", "class": "no (0)"}
{"smiles-text": "C=C(C)[C@@H]1CCC2=C(CC[C@]3(C)[C@@H]([C@@H](CCC=C(C)C)C(=O)O)[C@H](O)C[C@@]23C)[C@@]1(C)CCC(=O)O", "class": "no (0)"}

Next item in the queue.
Ask: Dear all, I need the recorded test outcome for NC(=S)N1N=C2c3ccccc3CCC[C@H]2[C@@H]1c1ccccc1 , thank you.
Result: yes (1)
